- Tested on: SK-OV-3 ovarian
- Protocol Summary: NCI tumour cell line growth inhibition, 48 h
Can you tell me TGI for the items I'm about to list?

Input line: Fill in the blank: the reported TGI of CC1(C)CCCCCCCCCC(C)(CCCO)C1=O (stereo not drawn) is ____.
Output line: 31.4 µM

Input line: Try this molecule next: Cc1ccccc1-n1c(/C=C\c2ccccn2)nc2ccccc2c1=O
Output line: > 100 µM

Input line: Then this molecule: Cn1c2ccccc2c(=O)c2c(O)cc3c(c21)C=CC1(CCCC1)O3
Output line: > 100 µM

Input line: What do you get for COC1(OC)CC2C(=O)N(Cc3ccccc3)C1CC2S(=O)(=O)c1ccccc1 (stereo not drawn) ?
Output line: > 100 µM

Input line: Here is the next molecule: Nc1nc(Cl)cc(NCC2(CO)CCC2)n1
Output line: > 100 µM

Input line: # iterate: CCOC(=O)c1c(C)n(CC(C)C)c2c1cc1oc(=O)c(=O)n3cnc2c13
Output line: > 50 µM

Input line: Then what about the molecule NCS(=O)(=O)O ?
Output line: > 100 µM

Input line: Here is the next molecule: Cn1cnc2c(OCC3CCCCC3)nc(N)nc21
Output line: > 100 µM

Input line: Would you mind doing CC1=CC2(O)OC3(CC2=C(C)C)C(C)CCC13 (stereo not drawn) as well?
Output line: > 100 µM

Input line: Would you kindly repeat that for CCCCCC(=O)OCC(=O)O[C@@H]1C[C@]2(C(C)C)O[C@@]1(C)[C@@H]1CC[C@@H](C)[C@H]1[C@@H]2OC(=O)/C=C/c1ccccc1 ?
Output line: > 100 µM

Input line: Lookup O=C(O)c1ccc(S(=O)(=O)N=Nc2c(O)[nH]c3ccccc23)cc1
Output line: > 100 µM

Input line: // next record c1ccc2c[n+](CCCCCCCCCC[n+]3ccc4ccccc4c3)ccc2c1
Output line: > 10 µM

Input line: Entry to check: COc1cc2c(cc1OC)C(Cl)C(c1ccc(Cl)cc1)=C2Cl (stereo not drawn)
Output line: 57.5 µM

Input line: Thanks! And COc1cccc(Cn2cc3c(c2)-c2oncc2CC3)c1 ?
Output line: 6.03 µM

Input line: Field entry: COc1ccc(C2C(c3ccccc3)C(=O)N2c2cc(OC)c(OC)c(OC)c2)cc1I (stereo not drawn)
Output line: > 100 µM

Input line: Also CCOC(=O)C1=C(C)N(C)C(=S)NC1c1cccc(O)c1 (stereo not drawn) , if possible.
Output line: > 100 µM

Input line: Then what about the molecule CO/C(=N\N=C\c1ccc(OC)cc1OC)c1ccncc1 ?
Output line: > 10 µM

Input line: Do the same for COc1ccc(NC(=O)c2sc3nc(C)c(C(O)c4ccc(OC)cc4)cc3c2N)cc1 (stereo not drawn) please
Output line: > 50 µM

Input line: Try this molecule too: COc1cc(C)cc2c1C(=O)C(Br)=CC2=O
Output line: 33.8 µM

Input line: Would you mind doing CCC(CC)C(=O)OC[n+]1cccc(-c2c(COC(=O)NC(C)C)c(COC(=O)NC(C)C)c3n2CCC3)c1 as well?
Output line: > 100 µM

Input line: Can you check CCCCCC(=O)OCC(=O)[C@H]1[C@H](C)C[C@H]2[C@@H]3C[C@H](F)C4=C/C(=N/OC(=O)c5cccc6c(=O)c7ccccc7[nH]c56)C=C[C@]4(C)[C@H]3[C@@H](O)C[C@@]21C next?
Output line: > 100 µM

Input line: # iterate: CCN(CC)Cc1ccc2cccnc2c1O
Output line: 25.1 µM

Input line: Another molecule to check: NC(=O)C12C3C4C1C1C2C3C41C(N)=O (stereo not drawn)
Output line: > 100 µM

Input line: Lookup Cc1nccc2c1cnc1ccnn12
Output line: > 100 µM

Input line: Same question, COc1cccc2c1cc([N+](=O)[O-])c1c(C(=O)O)cc3c(c12)OCO3 this time
Output line: > 100 µM

Input line: Now try CCN(CC)CCCCCOc1cc(O)c2c(=O)cc(-c3ccccc3)oc2c1 .
Output line: 17.8 µM

Input line: Same for O=C(O)c1ccc(-c2ccc(C(=O)O)cc2I)c(I)c1
Output line: > 100 µM

Input line: Now this one: COc1cnc2c(c1)C(=O)c1c-2n(CCCN2CCNCC2)c(=O)c2cc(Cl)ccc12
Output line: 2.51 µM

Input line: Now this one: C=C1CC2(OC1=O)c1ccccc1C=Cc1ccccc12
Output line: 30.8 µM

Input line: Let us now turn to CCOC(=O)c1c2c(c(O)c3ccccc3c(O)n(-c3ccc(C)cc3)c1C)C(=O)C=CC2=O
Output line: 89.7 µM

Input line: Also COc1ccc2[nH]c(-c3cccc(N(C)C)c3)cc(=O)c2c1 ?
Output line: 59.2 µM

Input line: How about COc1cc(/C=C2/SC(c3ccccc3)N(c3ccc(Cl)cc3)C2=O)cc(OC)c1OC (stereo not drawn) ?
Output line: > 100 µM

Input line: Follow-up entry: COc1cc2nc(-c3ccc(-n4cncc4-c4ccc(N)cc4)cc3)sc2c(OC)c1OC
Output line: 31.3 µM
